- Test system: Sam68 (KHDRBS1)
- assay: compounds binding KHDRBS1 protein – biochemical, small-molecule microarray, 635 nm fluorescence, primary screen (AID 1125);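 further: score merges 667 nm channel intensity with signal to noise over triplicate slides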
- recorded conditions: higher = more signal
observable: composite z-score
Answer field: number only, no words.

These recorded examples may help you get a feel for the data.
CC(C)C(CO)N1C(=O)[C@@H]2[C@H]3C(=O)OCC=C[C@H]3OC23C=CCN(Cn2nnc4ccccc42)C(=O)[C@@H]13 (stereo partly specified): -0.821
CC(C)c1ccc(NN2C(C(O)c3cccs3)C=CC3C(=O)N(c4ccccc4)C(=O)C32)cc1 (stereo unspecified): 1.31
CN(C)C(=O)[C@@]1(CCC(=O)OC(C)(C)C)N=C(c2ccc(OCCCO)cc2)O[C@H]1c1ccccc1N=[N+]=[N-]: 1.3
O=C1c2ccccc2C(=O)C2CC([C@H]3Oc4ccccc4S(=O)(=O)N4CCC[C@@H]34)=CCC12 (stereo partly specified): -0.557
CC(C)c1ccc(NN2C(C(O)c3ccccn3)C=CC3C(=O)N(c4ccccc4)C(=O)C32)cc1 (stereo unspecified): 1.32
COC(=O)[C@@]1(Cc2ccc(OC)cc2)[C@H]2c3cc(C(=O)N4CCCC4)n(CCc4ccc(O)c(OC)c4)c3C[C@H]2CN1C(=O)c1ccccc1: -0.295
CCCCC(O)C1C=CC2C(=O)N(Cc3ccccc3)C(=O)C2N1n1cnnc1 (stereo unspecified): 1.01
O=C1NC(=O)C2C1C=CC(C(O)c1ccc(-c3ccccc3)s1)N2Nc1ccccn1 (stereo unspecified): 0.105
C=CCN1C(=O)[C@@]2(O[C@@H](CCO)[C@H]([Si](C)(C)c3ccc(OC)cc3)[C@H]2C)c2cc(NC(=O)[C@H](C)O)ccc21: 1.31
CCCN1C(=O)[C@@H]2Cc3c([nH]c4ccccc34)[C@@H](c3cccc(O)c3)N2C1=O: 0.65

q: Give its composite z-score value. Item: CO[C@H]1O[C@H](CO)[C@@H](OC(=O)c2ccc(Br)cc2)[C@@H]2OC(=O)[C@H](Cc3cccc(Br)c3)C/C=C/C[C@@H](Cc3cccc(Br)c3)C(=O)O[C@@H]12
a: 1.18

q: Given the molecule COC(=O)c1c(CC[C@@H](CO)NC(=O)N[C@@H](C)Cn2cc(C3(O)CCCC3)nn2)oc(C(C)=O)c1C(=O)OC , what is its reported composite z-score?
a: 0.481

q: Field request: composite z-score | item: C=C(C)[C@@H]1CC=C(C(O)C2C=CC3C(=O)N(C4CCCCC4)C(=O)C3N2Nc2ccc(OC)cc2)CC1 (stereo partly specified)
a: 1.29

---

Quick reference for z-score among some molecules
- assay: blockers of DNA damage checkpoint Chk1 activation – imaging, HeLa, hydroxyurea, phospho-Chk1 antibody, percent positive cells, primary screen (AID 1186)
- recorded conditions: hydroxyurea-induced phospho-Chk1 immunofluorescence imaging, higher = more signal
Lab note: record the figure alone, no unit after it.

Some solved cases for reference:
O=C1O[C@H](c2ccccc2)[C@H](c2ccccc2)N2[C@H]1[C@@H](C(=O)N1CCCCCCC1)[C@]1(C(=O)Nc3ccc(C#CCCO)cc31)[C@H]2c1ccc(OCCO)cc1: -0.141
C=C[C@H](C)[C@H](OC(=O)Nc1ccc(SC)cc1)c1ccc(O)c2ccccc12: -0.08
COc1ccc(C#Cc2ccc3c(c2)[C@]2(C(=O)N3)[C@H](C(=O)O)[C@H]3C(=O)O[C@H](c4ccccc4)[C@H](c4ccccc4)N3[C@@H]2c2ccc(OCCO)cc2)cc1: 0.573

Now take the following molecule into account.
q: # get_value(readout='z-score', item= COCCCNC(=O)[C@@]1(C)c2ccccc2C(=O)N(c2ccc(C)cn2)[C@H]1c1ccc(CO)cc1 )
a: 0.228
